# TESTED TARGET: EGFR (form in the assay not stated) (human, UniProt P00533 25-645, limits assumed)
# TEST: ELISA, NEM conjugate 10 nM
Listed next: entries and their corresponding binding ratio vs parent P54AR4-83v2.
Report only the number, with the unit ratio understood.

Some binders with recorded binding ratio vs parent P54AR4-83v2:
P54AR4-83v2 V74C, NEM conjugate (designed binder, NEM on Cys 74, His-tagged) LPAPKNLVVSEVTEDSARLSWDDPWAFYESFLIQYQESEKVGEAIVLTVPGSERSYDLTGLKPGTEYTVSIYGCHNVYKDTNMRGLPLSAIFTT; 0.76
P54AR4-83v2 P63C, NEM conjugate (designed binder, NEM on Cys 63, His-tagged) LPAPKNLVVSEVTEDSARLSWDDPWAFYESFLIQYQESEKVGEAIVLTVPGSERSYDLTGLKCGTEYTVSIYGVHNVYKDTNMRGLPLSAIFTT; 0.95
P54AR4-83v2 S20C, NEM conjugate (designed binder, NEM on Cys 20, His-tagged) LPAPKNLVVSEVTEDSARLCWDDPWAFYESFLIQYQESEKVGEAIVLTVPGSERSYDLTGLKPGTEYTVSIYGVHNVYKDTNMRGLPLSAIFTT; 0.81

# context switch: different binder, same binding ratio vs parent P54AR4-83v2
Exercise: Returns the measured binding ratio vs parent P54AR4-83v2 for the input binder. Input: P54AR4-83v2 S55C, NEM conjugate (designed binder, NEM on Cys 55, His-tagged) LPAPKNLVVSEVTEDSARLSWDDPWAFYESFLIQYQESEKVGEAIVLTVPGSERCYDLTGLKPGTEYTVSIYGVHNVYKDTNMRGLPLSAIFTT
Solution: 0
